test: Caco-2 permeability (bi-directional; pH 7.4/pH 7.4)
Type: in vitro ADME
run_conditions: human, Caco-2, pH 7.4; read-out: Permeability (cm^2/s × 10^6)
Description: Caco-2 cells are used as an in vitro model of the human intestinal epithelium and permit assessment of the intestinal permeability of potential drugs. Test compound is added to either the apical or basolateral side of a confluent monolayer of Caco-2 cells and permeability is measured by monitoring the appearance of the test compound on the opposite side of the membrane using LC-MS/MS. Apparent permeability (Papp) coefficients, efflux ratio for the test compound and recovery values were determined. […]
Papp A→B at 120 min, 10 μM below 0.05 ×10⁻⁶ cm/s gives 0; Papp A→B at 120 min, 10 μM at or above it gives 1.

1. COCCOCCOCCOCCOCCOCCOCCN1CCN(Cc2ccc(C(=O)Nc3ccc(C)c(Nc4nccc(-c5cccnc5)n4)c3)cc2)CC1 : 1
2. COCCOCCOCCOCCOCCN1CCN(Cc2ccc(C(=O)Nc3ccc(C)c(Nc4nccc(-c5cccnc5)n4)c3)cc2)CC1 : 1
3. COCCOCCOCCOCCOCCOCCOCCOCCOCCNCc1ccc(C(=O)Nc2ccc(C)c(Nc3nccc(-c4cccnc4)n3)c2)cc1 : 0
4. COCCOCCOCCN1CCN(Cc2ccc(C(=O)Nc3ccc(C)c(Nc4nccc(-c5cccnc5)n4)c3)cc2)CC1 : 1
5. COCCOCCOCCOCCOCCOCCOCCNCc1ccc(C(=O)Nc2ccc(C)c(Nc3nccc(-c4cccnc4)n3)c2)cc1 : 0
6. COCCOCCOCCNCc1ccc(C(=O)Nc2ccc(C)c(Nc3nccc(-c4cccnc4)n3)c2)cc1 : 1

----------
target_or_system: ABL (Homo sapiens)
Sequence (P00519 whole entry): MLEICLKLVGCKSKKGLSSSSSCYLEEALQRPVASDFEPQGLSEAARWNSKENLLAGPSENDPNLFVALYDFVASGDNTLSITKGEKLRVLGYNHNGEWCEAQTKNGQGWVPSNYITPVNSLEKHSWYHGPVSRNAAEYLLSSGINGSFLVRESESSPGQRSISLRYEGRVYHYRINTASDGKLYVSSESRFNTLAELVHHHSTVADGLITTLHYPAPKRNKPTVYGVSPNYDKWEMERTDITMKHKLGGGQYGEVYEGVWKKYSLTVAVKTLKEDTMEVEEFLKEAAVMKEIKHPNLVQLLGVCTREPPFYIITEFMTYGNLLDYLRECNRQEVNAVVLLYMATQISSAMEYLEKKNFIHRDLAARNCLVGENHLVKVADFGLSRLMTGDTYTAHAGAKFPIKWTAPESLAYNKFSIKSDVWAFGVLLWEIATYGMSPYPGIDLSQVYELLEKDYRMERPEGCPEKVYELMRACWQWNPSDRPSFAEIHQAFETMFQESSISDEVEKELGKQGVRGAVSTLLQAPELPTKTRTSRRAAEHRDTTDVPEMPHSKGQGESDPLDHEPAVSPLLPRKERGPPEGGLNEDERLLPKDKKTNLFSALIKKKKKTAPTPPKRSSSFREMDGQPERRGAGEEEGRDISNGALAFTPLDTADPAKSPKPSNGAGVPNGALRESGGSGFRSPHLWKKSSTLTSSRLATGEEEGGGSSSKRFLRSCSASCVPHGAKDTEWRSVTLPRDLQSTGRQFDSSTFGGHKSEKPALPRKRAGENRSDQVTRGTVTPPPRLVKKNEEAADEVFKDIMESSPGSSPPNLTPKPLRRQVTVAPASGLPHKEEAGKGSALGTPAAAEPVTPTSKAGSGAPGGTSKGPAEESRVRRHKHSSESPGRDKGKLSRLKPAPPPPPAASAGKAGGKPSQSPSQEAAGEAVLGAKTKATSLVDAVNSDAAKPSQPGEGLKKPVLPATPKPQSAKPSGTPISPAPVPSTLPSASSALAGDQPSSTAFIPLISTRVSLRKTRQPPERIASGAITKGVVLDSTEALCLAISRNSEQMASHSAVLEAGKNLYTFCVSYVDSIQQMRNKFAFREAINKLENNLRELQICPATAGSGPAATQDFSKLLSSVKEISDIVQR
test: Off-chip mobility-shift kinase assay (Caliper LABCHIP), ABL
run_conditions: concentration 1.0E−09; imatinib-corresponding compounds
endpoint_name: ABL AVG % Activity at 1.0E−09 (%)

1) COCCOCCOCCOCCOCCOCCOCCN1CCN(Cc2ccc(C(=O)Nc3ccc(C)c(Nc4nccc(-c5cccnc5)n4)c3)cc2)CC1 : 96
2) COCCOCCOCCOCCOCCOCCOCCOCCOCCN1CCN(Cc2ccc(C(=O)Nc3ccc(C)c(Nc4nccc(-c5cccnc5)n4)c3)cc2)CC1 : 97
3) COCCOCCOCCOCCOCCOCCOCCOCCOCCNCc1ccc(C(=O)Nc2ccc(C)c(Nc3nccc(-c4cccnc4)n3)c2)cc1 : 96
4) COCCOCCOCCOCCOCCOCCOCCNCc1ccc(C(=O)Nc2ccc(C)c(Nc3nccc(-c4cccnc4)n3)c2)cc1 : 97
5) COCCOCCOCCOCCOCCNCc1ccc(C(=O)Nc2ccc(C)c(Nc3nccc(-c4cccnc4)n3)c2)cc1 : 97

----------
# ABL AVG % Activity at 3.0E−07 listing for each entry below
target_or_system: UniProt:P00519
test: Off-chip mobility-shift kinase assay (Caliper LABCHIP), ABL
run_conditions: concentration 3.0E−07; imatinib-corresponding compounds
endpoint_name: ABL AVG % Activity at 3.0E−07 (%)

1) COCCOCCOCCOCCOCCOCCOCCNCc1ccc(C(=O)Nc2ccc(C)c(Nc3nccc(-c4cccnc4)n3)c2)cc1 : 82
2) COCCOCCOCCOCCOCCOCCOCCOCCOCCNCc1ccc(C(=O)Nc2ccc(C)c(Nc3nccc(-c4cccnc4)n3)c2)cc1 : 85
3) COCCOCCOCCOCCOCCOCCOCCOCCOCCN1CCN(Cc2ccc(C(=O)Nc3ccc(C)c(Nc4nccc(-c5cccnc5)n4)c3)cc2)CC1 : 79
4) COCCOCCOCCOCCOCCOCCOCCN1CCN(Cc2ccc(C(=O)Nc3ccc(C)c(Nc4nccc(-c5cccnc5)n4)c3)cc2)CC1 : 78
5) COCCOCCOCCOCCOCCNCc1ccc(C(=O)Nc2ccc(C)c(Nc3nccc(-c4cccnc4)n3)c2)cc1 : 80

----------
target_or_system: cKIT (Homo sapiens, UniProt P10721)
Sequence (P10721 26-976): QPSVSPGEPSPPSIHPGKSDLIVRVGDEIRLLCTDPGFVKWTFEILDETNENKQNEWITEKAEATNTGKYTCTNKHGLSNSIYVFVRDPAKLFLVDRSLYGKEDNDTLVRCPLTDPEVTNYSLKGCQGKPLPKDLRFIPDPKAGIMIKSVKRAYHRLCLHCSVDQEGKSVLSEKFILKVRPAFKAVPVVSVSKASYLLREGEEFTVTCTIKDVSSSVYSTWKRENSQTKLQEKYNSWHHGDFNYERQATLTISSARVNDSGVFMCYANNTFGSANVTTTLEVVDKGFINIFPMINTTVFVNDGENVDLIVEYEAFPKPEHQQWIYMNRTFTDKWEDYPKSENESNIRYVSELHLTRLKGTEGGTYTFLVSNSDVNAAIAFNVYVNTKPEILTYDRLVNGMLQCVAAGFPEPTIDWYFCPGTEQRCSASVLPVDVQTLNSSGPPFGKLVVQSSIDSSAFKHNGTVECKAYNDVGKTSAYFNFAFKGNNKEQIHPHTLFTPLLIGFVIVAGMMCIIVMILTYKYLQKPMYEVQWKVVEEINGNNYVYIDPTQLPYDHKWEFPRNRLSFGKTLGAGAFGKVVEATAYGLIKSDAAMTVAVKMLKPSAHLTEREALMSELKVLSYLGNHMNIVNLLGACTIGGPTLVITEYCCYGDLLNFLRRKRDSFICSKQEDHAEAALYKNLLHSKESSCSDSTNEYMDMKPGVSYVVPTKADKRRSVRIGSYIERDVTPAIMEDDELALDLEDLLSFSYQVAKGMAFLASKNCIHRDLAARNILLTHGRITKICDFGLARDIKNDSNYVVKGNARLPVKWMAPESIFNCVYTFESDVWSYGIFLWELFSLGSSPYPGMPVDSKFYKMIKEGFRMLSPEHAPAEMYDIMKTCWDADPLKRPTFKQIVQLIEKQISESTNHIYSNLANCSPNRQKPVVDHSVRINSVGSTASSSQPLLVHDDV
test: Off-chip mobility-shift kinase assay (Caliper LABCHIP), C-kit
run_conditions: concentration 1.0E−08
We begin with a simple list: items and their reported C-kit AVG % Activity at 1.0E−08.
endpoint_name: C-kit AVG % Activity at 1.0E−08 (%)

1. COCCOCCOCCOCCOCCOCCOCCOCCOCCNCc1ccc(C(=O)Nc2ccc(C)c(Nc3nccc(-c4cccnc4)n3)c2)cc1 : 98
2. COCCOCCOCCOCCOCCOCCOCCNCc1ccc(C(=O)Nc2ccc(C)c(Nc3nccc(-c4cccnc4)n3)c2)cc1 : 100
3. COCCOCCOCCOCCOCCOCCOCCN1CCN(Cc2ccc(C(=O)Nc3ccc(C)c(Nc4nccc(-c5cccnc5)n4)c3)cc2)CC1 : 95
4. COCCOCCOCCOCCOCCNCc1ccc(C(=O)Nc2ccc(C)c(Nc3nccc(-c4cccnc4)n3)c2)cc1 : 92
5. COCCOCCOCCOCCOCCOCCOCCOCCOCCN1CCN(Cc2ccc(C(=O)Nc3ccc(C)c(Nc4nccc(-c5cccnc5)n4)c3)cc2)CC1 : 91

----------
target_or_system: PDGFRβ (Homo sapiens, UniProt P09619)
Sequence (P09619 33-1106): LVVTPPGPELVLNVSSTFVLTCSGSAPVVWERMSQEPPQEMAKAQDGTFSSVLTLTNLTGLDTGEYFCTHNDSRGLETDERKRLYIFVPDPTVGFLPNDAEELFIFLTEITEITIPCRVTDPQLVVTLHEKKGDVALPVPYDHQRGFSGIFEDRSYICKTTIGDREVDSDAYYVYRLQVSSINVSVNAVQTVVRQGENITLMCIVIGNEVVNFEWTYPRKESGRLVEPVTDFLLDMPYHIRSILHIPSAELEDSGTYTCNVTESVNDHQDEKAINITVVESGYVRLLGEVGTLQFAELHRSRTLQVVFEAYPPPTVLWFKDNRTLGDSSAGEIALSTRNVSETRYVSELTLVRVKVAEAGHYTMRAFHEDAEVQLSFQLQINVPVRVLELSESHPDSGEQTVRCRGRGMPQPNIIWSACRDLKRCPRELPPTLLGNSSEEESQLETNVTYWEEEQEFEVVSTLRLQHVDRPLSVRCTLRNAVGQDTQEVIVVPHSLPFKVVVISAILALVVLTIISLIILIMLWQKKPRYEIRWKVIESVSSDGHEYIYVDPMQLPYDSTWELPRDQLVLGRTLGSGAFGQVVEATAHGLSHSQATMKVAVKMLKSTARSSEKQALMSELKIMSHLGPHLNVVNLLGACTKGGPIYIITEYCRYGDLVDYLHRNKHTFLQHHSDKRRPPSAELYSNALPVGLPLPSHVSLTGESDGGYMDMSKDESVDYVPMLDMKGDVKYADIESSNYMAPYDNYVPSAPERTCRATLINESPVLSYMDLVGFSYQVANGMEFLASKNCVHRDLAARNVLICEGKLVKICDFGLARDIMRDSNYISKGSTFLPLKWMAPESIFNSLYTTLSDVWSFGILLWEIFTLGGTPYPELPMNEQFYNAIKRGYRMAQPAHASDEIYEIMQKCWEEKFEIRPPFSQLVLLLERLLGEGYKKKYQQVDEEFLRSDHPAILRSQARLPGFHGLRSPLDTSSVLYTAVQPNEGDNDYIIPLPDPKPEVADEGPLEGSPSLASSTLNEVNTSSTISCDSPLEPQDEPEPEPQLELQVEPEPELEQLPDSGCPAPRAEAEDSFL
test: Off-chip mobility-shift kinase assay (Caliper LABCHIP), PDGFR
run_conditions: concentration 1.0E−06
Measured PDGFR AVG % Activity at 1.0E−06 of individual entries
endpoint_name: PDGFR AVG % Activity at 1.0E−06

1) COCCOCCOCCOCCOCCOCCOCCNCc1ccc(C(=O)Nc2ccc(C)c(Nc3nccc(-c4cccnc4)n3)c2)cc1 : 13%
2) COCCOCCOCCOCCOCCNCc1ccc(C(=O)Nc2ccc(C)c(Nc3nccc(-c4cccnc4)n3)c2)cc1 : 9%
3) COCCOCCOCCOCCOCCOCCOCCOCCOCCN1CCN(Cc2ccc(C(=O)Nc3ccc(C)c(Nc4nccc(-c5cccnc5)n4)c3)cc2)CC1 : 13%
4) COCCOCCOCCOCCOCCOCCOCCN1CCN(Cc2ccc(C(=O)Nc3ccc(C)c(Nc4nccc(-c5cccnc5)n4)c3)cc2)CC1 : 18%
5) COCCOCCOCCOCCOCCOCCOCCOCCOCCNCc1ccc(C(=O)Nc2ccc(C)c(Nc3nccc(-c4cccnc4)n3)c2)cc1 : 11%

----------
test: Caco-2 permeability (bi-directional; pH 7.4/pH 7.4)
Assay type: in vitro ADME
run_conditions: human, Caco-2; ratio of B-A and A-B permeabilities; 10 μM; 120 minutes
efflux ratio at 120 min, 10 μM: recorded values
endpoint_name: efflux ratio at 120 min, 10 μM

1. COCCOCCOCCOCCOCCOCCOCCOCCOCCNCc1ccc(C(=O)Nc2ccc(C)c(Nc3nccc(-c4cccnc4)n3)c2)cc1 : 482
2. COCCOCCOCCOCCOCCOCCOCCN1CCN(Cc2ccc(C(=O)Nc3ccc(C)c(Nc4nccc(-c5cccnc5)n4)c3)cc2)CC1 : 75.7
3. COCCOCCOCCOCCOCCOCCOCCOCCOCCN1CCN(Cc2ccc(C(=O)Nc3ccc(C)c(Nc4nccc(-c5cccnc5)n4)c3)cc2)CC1 : 359
4. COCCOCCOCCOCCOCCOCCOCCNCc1ccc(C(=O)Nc2ccc(C)c(Nc3nccc(-c4cccnc4)n3)c2)cc1 : 391
5. COCCOCCOCCOCCOCCNCc1ccc(C(=O)Nc2ccc(C)c(Nc3nccc(-c4cccnc4)n3)c2)cc1 : 560

----------
target_or_system: cKIT (Homo sapiens)
test: Off-chip mobility-shift kinase assay (Caliper LABCHIP), C-kit
run_conditions: concentration 1.0E−07
endpoint_name: C-kit AVG % Activity at 1.0E−07

1) COCCOCCOCCOCCOCCOCCOCCOCCOCCN1CCN(Cc2ccc(C(=O)Nc3ccc(C)c(Nc4nccc(-c5cccnc5)n4)c3)cc2)CC1 [mPEG9-N′-Imatinib] : 82%
2) COCCOCCOCCOCCOCCOCCOCCNCc1ccc(C(=O)Nc2ccc(C)c(Nc3nccc(-c4cccnc4)n3)c2)cc1 : 88%
3) COCCOCCOCCOCCOCCNCc1ccc(C(=O)Nc2ccc(C)c(Nc3nccc(-c4cccnc4)n3)c2)cc1 [mPEG5-N-Imatinib] : 82%
4) COCCOCCOCCOCCOCCOCCOCCN1CCN(Cc2ccc(C(=O)Nc3ccc(C)c(Nc4nccc(-c5cccnc5)n4)c3)cc2)CC1 [mPEG7-N′-Imatinib] : 91%
5) COCCOCCOCCOCCOCCOCCOCCOCCOCCNCc1ccc(C(=O)Nc2ccc(C)c(Nc3nccc(-c4cccnc4)n3)c2)cc1 [mPEG9-N-Imatinib] : 93%

----------
target_or_system: ABL (Homo sapiens)
test: Off-chip mobility-shift kinase assay (Caliper LABCHIP), ABL
run_conditions: concentration 1.0E−07; imatinib-corresponding compounds
endpoint_name: ABL AVG % Activity at 1.0E−07 (%)

1) COCCOCCOCCOCCOCCOCCOCCOCCOCCNCc1ccc(C(=O)Nc2ccc(C)c(Nc3nccc(-c4cccnc4)n3)c2)cc1 : 89
2) COCCOCCOCCOCCOCCOCCOCCN1CCN(Cc2ccc(C(=O)Nc3ccc(C)c(Nc4nccc(-c5cccnc5)n4)c3)cc2)CC1 : 83
3) COCCOCCOCCOCCOCCOCCOCCOCCOCCN1CCN(Cc2ccc(C(=O)Nc3ccc(C)c(Nc4nccc(-c5cccnc5)n4)c3)cc2)CC1 : 84
4) COCCOCCOCCOCCOCCNCc1ccc(C(=O)Nc2ccc(C)c(Nc3nccc(-c4cccnc4)n3)c2)cc1 : 86
5) COCCOCCOCCOCCOCCOCCOCCNCc1ccc(C(=O)Nc2ccc(C)c(Nc3nccc(-c4cccnc4)n3)c2)cc1 : 90
